// provenance: paper PMC7411605

TESTED TARGET: Bovine milk xanthine oxidase (XO, EC 1.17.3.2) (Bos taurus, UniProt P80457)
Construct: Xanthine oxidase from bovine milk (EC 1.17.3.2); purchased Sigma Aldrich Co., (St. Louis, MO, USA); host or cells: bovine milk
Sequence (P80457 whole entry): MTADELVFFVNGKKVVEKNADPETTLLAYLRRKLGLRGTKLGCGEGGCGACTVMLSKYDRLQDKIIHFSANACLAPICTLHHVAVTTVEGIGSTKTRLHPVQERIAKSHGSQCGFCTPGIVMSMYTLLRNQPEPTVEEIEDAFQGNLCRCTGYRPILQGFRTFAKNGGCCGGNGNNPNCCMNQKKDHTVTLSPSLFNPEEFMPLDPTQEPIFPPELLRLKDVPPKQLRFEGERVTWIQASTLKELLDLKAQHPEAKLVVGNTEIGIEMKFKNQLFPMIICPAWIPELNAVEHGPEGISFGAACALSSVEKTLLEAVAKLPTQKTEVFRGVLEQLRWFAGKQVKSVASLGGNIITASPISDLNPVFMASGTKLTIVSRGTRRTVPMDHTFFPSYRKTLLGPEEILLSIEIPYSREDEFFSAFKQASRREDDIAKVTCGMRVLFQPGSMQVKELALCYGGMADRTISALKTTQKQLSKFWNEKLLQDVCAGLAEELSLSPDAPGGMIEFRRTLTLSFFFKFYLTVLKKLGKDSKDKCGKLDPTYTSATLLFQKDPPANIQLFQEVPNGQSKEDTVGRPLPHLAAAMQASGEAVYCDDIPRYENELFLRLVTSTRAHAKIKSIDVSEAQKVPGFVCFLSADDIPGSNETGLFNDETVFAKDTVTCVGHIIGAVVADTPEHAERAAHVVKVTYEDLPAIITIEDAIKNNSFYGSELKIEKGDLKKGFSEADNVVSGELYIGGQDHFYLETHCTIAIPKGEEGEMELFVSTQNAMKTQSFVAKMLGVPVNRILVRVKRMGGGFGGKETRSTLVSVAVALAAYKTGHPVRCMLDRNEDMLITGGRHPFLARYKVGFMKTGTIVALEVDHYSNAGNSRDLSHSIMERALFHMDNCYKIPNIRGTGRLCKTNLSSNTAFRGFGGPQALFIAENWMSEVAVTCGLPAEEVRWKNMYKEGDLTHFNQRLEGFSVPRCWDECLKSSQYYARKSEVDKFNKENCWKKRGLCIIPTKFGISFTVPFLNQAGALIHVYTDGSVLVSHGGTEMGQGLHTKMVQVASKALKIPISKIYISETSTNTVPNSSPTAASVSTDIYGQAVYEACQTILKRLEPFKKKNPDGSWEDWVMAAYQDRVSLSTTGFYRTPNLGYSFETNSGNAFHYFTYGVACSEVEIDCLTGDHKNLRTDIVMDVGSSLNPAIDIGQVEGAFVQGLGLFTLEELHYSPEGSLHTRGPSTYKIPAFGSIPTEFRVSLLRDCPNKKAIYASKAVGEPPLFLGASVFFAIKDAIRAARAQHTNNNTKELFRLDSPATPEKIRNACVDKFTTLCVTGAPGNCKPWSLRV
PROTOCOL TEXT: Xanthine oxidase inhibition kinetics (Lineweaver–Burk and Dixon plots)
Assay type: biochemical
ASSAY CONTEXT: Dixon plots; read-out: Ki (inhibition constant)
pKi: −log10 of the molar value.

# COMPOUND, TESTED TARGET, pKi
data = [
    ("CC(C)=CCc1cc(-c2coc3cc(O)cc(O)c3c2=O)c(CC=C(C)C)c(O)c1O [Compound 4]", "Bovine milk xanthine oxidase (XO, EC 1.17.3.2) (Bos taurus, UniProt P80457)", 4.94),
    ("CC(C)=CCc1c(O)c(CC=C(C)C)c2occ(-c3ccc(O)cc3)c(=O)c2c1O [Compound 7, 8-γ,γ-dimethylallylwighteone]", "Bovine milk xanthine oxidase (XO, EC 1.17.3.2) (Bos taurus, UniProt P80457)", 4.95),
    ("O=c1c(-c2ccc(O)cc2)coc2cc(O)cc(O)c12 [Compound 1, genistein]", "Bovine milk xanthine oxidase (XO, EC 1.17.3.2) (Bos taurus, UniProt P80457)", 4.94),
    ("C=CC(C)(C)C1=Cc2c(c(CC=C(C)C)c3occ(-c4ccc(O)c(O)c4)c(=O)c3c2O)OC1(C)C [Compound 5, flemiphilippinin A]", "Bovine milk xanthine oxidase (XO, EC 1.17.3.2) (Bos taurus, UniProt P80457)", 4.89),
    ("CC(C)=CCc1c2c(c(O)c3c(=O)c(-c4ccc(O)c(O)c4)coc13)C=CC(C)(C)O2 [Compound 2, auriculasin]", "Bovine milk xanthine oxidase (XO, EC 1.17.3.2) (Bos taurus, UniProt P80457)", 4.95),
]
